TARGET OR TEST SYSTEM: human JAK3 (a.a. 781-1124) (Homo sapiens, UniProt P52333)
Construct: JAK3 (a.a. 781-1124); His tag (N); made in house; host or cells: insect cells (baculovirus)
Sequence (P52333 781-1124): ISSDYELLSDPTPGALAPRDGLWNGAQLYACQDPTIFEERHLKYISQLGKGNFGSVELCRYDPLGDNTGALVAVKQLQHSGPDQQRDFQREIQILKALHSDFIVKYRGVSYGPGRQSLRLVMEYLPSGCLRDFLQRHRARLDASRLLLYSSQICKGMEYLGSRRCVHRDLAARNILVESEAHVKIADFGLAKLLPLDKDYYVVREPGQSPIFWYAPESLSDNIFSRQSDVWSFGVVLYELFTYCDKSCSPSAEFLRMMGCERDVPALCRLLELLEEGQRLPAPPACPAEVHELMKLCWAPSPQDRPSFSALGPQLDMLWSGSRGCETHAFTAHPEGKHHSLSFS
METHOD: In vitro JAK kinase assay (HTRF, phosphorylation of a biotinylated peptide), JAK3
Format: biochemical
PROTOCOL CONDITIONS: Table D1
Structures can show the parent of a compound that is named as a salt.
READOUT TYPE: IC50 (nM)
Kindly provide the numeric value in nM only, without the unit symbol.

[O-][S+]1CCOc2cccc(c2)Nc2ncc(Cl)c(n2)Nc2cccc1c2 (stereo not drawn) [Example D13, trifluoroacetate] :: 24
Clc1cnc2nc1Nc1cccc(c1)SCCNc1cccc(c1)N2 [Example D80, bis(trifluoroacetate)] :: 23

Now, please, on to the next molecule.
Value of IC50 reported for the molecule CC(C)(C)NC(=O)N1CCN(c2ccc3cc2CCc2cccc(c2)Nc2ncc(Cl)c(n2)N3)CC1 [Example D84, bis(trifluoroacetate)] is 37

---

Reported ALK % of inhibition at a concentration of 500 nM or 1 mM values follow for various compounds
TARGET OR TEST SYSTEM: Recombinant Human Anaplastic Lymphoma Kinase (Homo sapiens, UniProt Q9UM73)
Construct: purchased Invitrogen, Carlsbad, Calif
Sequence (Q9UM73 19-1620): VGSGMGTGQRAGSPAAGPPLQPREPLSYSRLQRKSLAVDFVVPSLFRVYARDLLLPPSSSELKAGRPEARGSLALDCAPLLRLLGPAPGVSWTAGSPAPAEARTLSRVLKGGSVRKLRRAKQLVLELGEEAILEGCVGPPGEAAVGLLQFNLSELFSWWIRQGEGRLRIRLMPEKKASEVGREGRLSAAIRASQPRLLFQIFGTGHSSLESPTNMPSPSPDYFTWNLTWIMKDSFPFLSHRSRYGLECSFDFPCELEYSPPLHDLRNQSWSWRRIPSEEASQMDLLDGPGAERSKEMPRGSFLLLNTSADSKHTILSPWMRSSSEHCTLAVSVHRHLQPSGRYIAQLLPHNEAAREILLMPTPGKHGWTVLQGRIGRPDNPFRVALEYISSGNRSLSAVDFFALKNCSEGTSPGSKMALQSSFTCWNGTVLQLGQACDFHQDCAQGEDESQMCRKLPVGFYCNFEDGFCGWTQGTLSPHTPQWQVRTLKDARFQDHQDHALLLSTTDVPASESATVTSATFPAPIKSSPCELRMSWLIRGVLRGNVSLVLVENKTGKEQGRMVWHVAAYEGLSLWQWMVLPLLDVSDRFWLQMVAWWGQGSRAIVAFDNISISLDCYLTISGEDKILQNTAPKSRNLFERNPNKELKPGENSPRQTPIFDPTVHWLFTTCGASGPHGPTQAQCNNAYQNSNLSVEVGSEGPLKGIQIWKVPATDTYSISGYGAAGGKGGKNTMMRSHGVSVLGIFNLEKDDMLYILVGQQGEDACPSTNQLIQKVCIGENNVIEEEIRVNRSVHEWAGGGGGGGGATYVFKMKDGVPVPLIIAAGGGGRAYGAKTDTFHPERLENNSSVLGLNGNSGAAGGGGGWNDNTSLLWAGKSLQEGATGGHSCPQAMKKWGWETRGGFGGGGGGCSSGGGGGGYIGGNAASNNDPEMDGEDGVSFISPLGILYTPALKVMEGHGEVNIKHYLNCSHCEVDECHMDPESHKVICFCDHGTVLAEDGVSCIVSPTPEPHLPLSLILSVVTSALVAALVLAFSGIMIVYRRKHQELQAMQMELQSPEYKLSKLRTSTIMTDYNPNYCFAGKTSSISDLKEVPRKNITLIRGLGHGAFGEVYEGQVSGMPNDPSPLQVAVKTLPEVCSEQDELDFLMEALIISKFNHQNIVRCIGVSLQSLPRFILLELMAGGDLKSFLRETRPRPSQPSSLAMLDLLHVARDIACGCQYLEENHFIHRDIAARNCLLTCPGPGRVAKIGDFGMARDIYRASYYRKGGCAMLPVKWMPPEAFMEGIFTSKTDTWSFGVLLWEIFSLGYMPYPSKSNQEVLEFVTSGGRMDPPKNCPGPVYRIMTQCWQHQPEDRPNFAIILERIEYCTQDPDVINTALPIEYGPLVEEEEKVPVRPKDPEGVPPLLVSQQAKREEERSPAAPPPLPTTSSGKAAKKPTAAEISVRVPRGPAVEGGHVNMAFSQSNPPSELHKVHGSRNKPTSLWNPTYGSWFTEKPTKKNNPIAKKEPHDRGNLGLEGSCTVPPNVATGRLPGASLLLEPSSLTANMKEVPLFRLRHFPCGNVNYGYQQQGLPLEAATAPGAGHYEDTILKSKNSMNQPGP
METHOD: ALK HTRF kinase assay
Type: biochemical
PROTOCOL CONDITIONS: compound at a concentration of 500 nM or 1 mM (not specified); cells shown as percentage
Counter-ions that a name gives are not always drawn.
Kindly provide the numeric value in % only, without the unit symbol.

Cc1ncoc1C(=O)N1CC[C@H](NC(=O)Nc2ccc3cc2CCc2cncc(c2)Nc2ncc(Cl)c(n2)N3)C1 [Example B273, bis(trifluoroacetate)] :: 3.2

Value of ALK % of inhibition at a concentration of 500 nM or 1 mM reported for the compound Nc1ccc2cc1CCc1cncc(c1)Nc1ncc(Cl)c(n1)N2 [Example B20, tris(trifluoroacetate)] is 51

Value of ALK % of inhibition at a concentration of 500 nM or 1 mM reported for the compound COc1cccc(S(=O)(=O)Nc2ccc3cc2CCc2cccc(c2)Nc2ncc(Cl)c(n2)N3)c1 [Example B157, trifluoroacetate] is 87

Value of ALK % of inhibition at a concentration of 500 nM or 1 mM reported for the compound O=C(c1coc(Nc2ccc3cc2CCc2cccc(c2)Nc2ncc(Cl)c(n2)N3)n1)N1CCN2CCCC2C1 (stereo not shown) is 33

---

TARGET OR TEST SYSTEM: human JAK1 (a.a. 837-1142) (Homo sapiens, UniProt P23458)
Construct: human JAK1 (a.a. 837-1142); His tag (N); made in house; host or cells: insect cells (baculovirus)
Sequence (P23458 849-1154): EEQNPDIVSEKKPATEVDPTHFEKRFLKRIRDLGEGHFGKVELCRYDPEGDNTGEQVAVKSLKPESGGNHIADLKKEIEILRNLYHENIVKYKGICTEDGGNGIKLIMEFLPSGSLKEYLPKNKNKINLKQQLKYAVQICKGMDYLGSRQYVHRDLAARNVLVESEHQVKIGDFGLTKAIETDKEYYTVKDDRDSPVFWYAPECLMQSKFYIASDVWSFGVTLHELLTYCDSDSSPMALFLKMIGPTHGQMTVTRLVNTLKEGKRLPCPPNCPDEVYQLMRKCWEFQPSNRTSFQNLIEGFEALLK
METHOD: In vitro JAK kinase assay (HTRF, phosphorylation of a biotinylated peptide), JAK1
Format: biochemical
PROTOCOL CONDITIONS: method AA1 (90 μM ATP) or AA2 (1000 μM ATP), not stated per value; read-out: JAK1 IC50
pIC50: −log10 of the molar value. Counter-ions that a name gives are not always drawn.
Please use class 1 whenever pIC50 is not below 8, and class 0 whenever it is.

Example entries begin here.
Cn1ccc2c(NC(=O)N3CCN(C(=O)COc4ccc5cc4CCc4cccc(c4)Nc4ncc(Cl)c(n4)N5)CC3)cccc21 [Example A11, trifluoroacetate] :: class 1
Nc1nonc1C(=O)N1CCC(CC(=O)Nc2ccc3cc2CCc2cncc(c2)Nc2ncc(Cl)c(n2)N3)CC1 [Example A167, tris(trifluoroacetate)] :: class 1
O=C(Nc1ccc2cc1CCc1cccc(c1)Nc1ncc(Cl)c(n1)N2)C1CCN(S(=O)(=O)c2ccccc2)CC1 [Example A42, trifluoroacetate] :: class 0
O=C(CC1CCN(S(=O)(=O)c2cccnc2)CC1)Nc1ccc2cc1CCc1cncc(c1)Nc1ncc(Cl)c(n1)N2 [Example A202, tris(trifluoroacetate)] :: class 1
CSc1ccccc1NC(=O)N1CCC(C(=O)Nc2ccc3cc2CCc2cccc(c2)Nc2ncc(Cl)c(n2)N3)CC1 [Example A39, trifluoroacetate] :: class 0
Cc1cc(C(=O)N2CCC(CC(=O)Nc3ccc4cc3CCc3cncc(c3)Nc3ncc(Cl)c(n3)N4)CC2)no1 [Example A101, bis(trifluoroacetate)] :: class 1
O=C(Nc1ccc2cc1CCc1cccc(c1)Nc1ncc(Cl)c(n1)N2)[C@@H]1CCN(C(=O)Nc2ccccc2)C1 [Example A54, trifluoroacetate] :: class 1
O=C(CC1CCN(c2nncs2)CC1)Nc1ccc2cc1CCc1cncc(c1)Nc1ncc(Cl)c(n1)N2 [Example A174, tris(trifluoroacetate)] :: class 1

Shift focus to the following entry.
Please tell me: is the compound CCS(=O)(=O)N1CCC(CC(=O)Nc2ccc3cc2CCc2cncc(c2)Nc2ncc(Cl)c(n2)N3)CC1 [Example A98, bis(trifluoroacetate)] at or over 8 in terms of pIC50?
class 1

---

TARGET OR TEST SYSTEM: TYK2 (Homo sapiens, UniProt P29597)
Sequence (P29597 whole entry): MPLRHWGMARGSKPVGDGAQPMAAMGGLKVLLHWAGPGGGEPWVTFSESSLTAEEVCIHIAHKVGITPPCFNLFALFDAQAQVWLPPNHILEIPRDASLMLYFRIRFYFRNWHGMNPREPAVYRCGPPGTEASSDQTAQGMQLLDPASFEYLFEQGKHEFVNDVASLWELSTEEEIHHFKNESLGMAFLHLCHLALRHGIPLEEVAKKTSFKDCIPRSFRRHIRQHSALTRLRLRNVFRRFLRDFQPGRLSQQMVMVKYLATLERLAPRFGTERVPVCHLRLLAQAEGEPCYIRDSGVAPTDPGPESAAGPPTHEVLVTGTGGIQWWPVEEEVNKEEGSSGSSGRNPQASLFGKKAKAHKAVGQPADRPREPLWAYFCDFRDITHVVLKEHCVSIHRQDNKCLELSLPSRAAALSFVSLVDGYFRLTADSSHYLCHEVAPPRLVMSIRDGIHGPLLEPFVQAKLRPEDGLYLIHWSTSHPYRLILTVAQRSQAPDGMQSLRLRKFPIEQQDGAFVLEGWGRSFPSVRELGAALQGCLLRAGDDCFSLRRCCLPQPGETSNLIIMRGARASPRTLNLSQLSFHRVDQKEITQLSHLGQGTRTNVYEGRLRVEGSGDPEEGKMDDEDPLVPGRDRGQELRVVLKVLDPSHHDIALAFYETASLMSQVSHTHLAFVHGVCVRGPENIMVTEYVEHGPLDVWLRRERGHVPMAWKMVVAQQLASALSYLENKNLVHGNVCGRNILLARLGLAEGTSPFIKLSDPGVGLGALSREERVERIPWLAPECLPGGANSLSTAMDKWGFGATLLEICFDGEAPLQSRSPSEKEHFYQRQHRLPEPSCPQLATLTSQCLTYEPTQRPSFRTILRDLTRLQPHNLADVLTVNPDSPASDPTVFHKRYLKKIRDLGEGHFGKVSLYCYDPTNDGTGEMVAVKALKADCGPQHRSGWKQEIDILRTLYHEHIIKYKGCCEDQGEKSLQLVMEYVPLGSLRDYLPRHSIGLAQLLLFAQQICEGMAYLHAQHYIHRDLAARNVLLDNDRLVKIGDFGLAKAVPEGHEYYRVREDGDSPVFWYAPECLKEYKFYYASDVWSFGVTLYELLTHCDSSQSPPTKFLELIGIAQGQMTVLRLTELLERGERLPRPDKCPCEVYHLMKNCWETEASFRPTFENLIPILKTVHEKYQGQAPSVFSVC
METHOD: TYK2 kinase inhibition (Table A1)
Assay type: biochemical
PROTOCOL CONDITIONS: Table D1
Where a name gives a salt, the structure may show the parent alone.
READOUT TYPE: IC50 (nM)
Kindly provide the numeric value in nM only, without the unit symbol.

Value of IC50 reported for the molecule Clc1cnc2nc1Nc1cccc(c1)COc1cccc(c1)N2 [Example D6, trifluoroacetate] is 16

---

TARGET OR TEST SYSTEM: TYK2 (Homo sapiens)
METHOD: TYK2 kinase inhibition (Table A1)
Assay type: biochemical
READOUT TYPE: pIC50
Lab note: report pIC50 as minus log10 of the concentration in molar units, number only.

O=C(CC1CCN(C(=O)c2cnccn2)CC1)Nc1ccc2cc1CCc1cncc(c1)Nc1ncc(Cl)c(n1)N2 [Example A102, tris(trifluoroacetate)] :: 7.72

Now, please, on to the next molecule.
Value of pIC50 reported for the molecule O=C(CC1CCN(C(=O)Nc2ccccc2)CC1)Nc1ccc2cc1CCc1cncc(c1)Nc1ncc(Cl)c(n1)N2 [Example A77, bis(trifluoroacetate)] is 8.40

---

TARGET OR TEST SYSTEM: TYK2 (Homo sapiens, UniProt P29597)
METHOD: TYK2 kinase inhibition (Table A1)
Format: biochemical
PROTOCOL CONDITIONS: Table B1
Counter-ions that a name gives are not always drawn.
Reported pIC50 values follow for various compounds
Lab note: report pIC50 as minus log10 of the concentration in molar units, number only.

In the examples that follow, each entry is paired with its recorded pIC50.
N#Cc1ccc(C(=O)N2CC[C@H](NC(=O)Nc3ccc4cc3CCc3cccc(c3)Nc3ncc(Cl)c(n3)N4)C2)cc1 [Example B235, trifluoroacetate] :: 7.44
Cn1cncc1C(=O)Nc1cc2cc(c1)Nc1nc(ncc1Cl)Nc1cccc(c1)CC2 [Example B208, trifluoroacetate] :: 6.82
O=C(Nc1ccc(N2CCOCC2)cc1)c1cc2cc(c1)Nc1nc(ncc1Cl)Nc1cccc(c1)CC2 [Example B9, trifluoroacetate] :: 6.17
CC(C)(C)OC(=O)N1CC[C@H](NC(=O)Nc2ccc3cc2CCc2cccc(c2)Nc2ncc(Cl)c(n2)N3)C1 :: 7.77

Value of pIC50 reported for the compound Clc1nccc(N2CCN(Cc3cc4cc(c3)Nc3nc(ncc3Cl)Nc3cccc(c3)CC4)CC2)n1 [Example B218, tris(trifluoroacetate)] is 6.05

Value of pIC50 reported for the compound O=C(Nc1ccc2cc1CCc1cccc(c1)Nc1ncc(Cl)c(n1)N2)NC1CCCC1 [Example B88, trifluoroacetate] is 8.20

Value of pIC50 reported for the compound N#Cc1cccc(NC(=O)Nc2ccc3cc2CCc2cccc(c2)Nc2ncc(Cl)c(n2)N3)c1 [Example B95, trifluoroacetate] is 8.11

Value of pIC50 reported for the compound O=C(Nc1ccc2cc1CCc1cccc(c1)Nc1ncc(Cl)c(n1)N2)c1cccc(Cl)c1 [Example B42, hydrochloride] is 8.41

Value of pIC50 reported for the compound Cc1ccc(S(=O)(=O)Nc2ccc3cc2CCc2cccc(c2)Nc2ncc(Cl)c(n2)N3)cc1 [Example B150, trifluoroacetate] is 9.07

Value of pIC50 reported for the compound Cn1cnc(S(=O)(=O)Nc2ccc3cc2CCc2cccc(c2)Nc2ncc(Cl)c(n2)N3)c1 [Example B144, bis(trifluoroacetate)] is 9.30

Value of pIC50 reported for the compound CC(C)(C)NC(=O)Nc1ccc2cc1CCc1cccc(c1)Nc1ncc(Cl)c(n1)N2 [Example B87, trifluoroacetate] is 7.80

Value of pIC50 reported for the compound O=C(Nc1ccc2cc1CCc1cccc(c1)Nc1ncc(Cl)c(n1)N2)c1ccc2c(c1)OCO2 [Example B71, trifluoroacetate] is 8.02

Value of pIC50 reported for the compound N#Cc1ccc(NC(=O)Nc2cc3cc(c2)Nc2nc(ncc2Cl)Nc2cccc(c2)CC3)cc1 [Example B212, trifluoroacetate] is 6.30

Value of pIC50 reported for the compound `CN(C(=O)Nc1ccc2cc1CCc1cccc(c1)Nc1ncc(Cl)c(n1)N2)[C@H]1CCN(Cc2ccccc2)C1` is 6.26

Value of pIC50 reported for the compound COC(=O)c1ccc2cc1CCc1cccc(c1)Nc1ncc(Cl)c(n1)N2 [Example B22, trifluoroacetate] is 7.39

Value of pIC50 reported for the compound O=C(Nc1ccc2cc1CCc1cncc(c1)Nc1ncc(Cl)c(n1)N2)N1CCN(c2ccccc2F)CC1 [Example B295, tris(trifluoroacetate)] is 6.82

Value of pIC50 reported for the compound Cc1occc1NC(=O)N1CCC(CN(C)Cc2ccc3cc2CCc2cncc(c2)Nc2ncc(Cl)c(n2)N3)CC1 [Example B349, tris(trifluoroacetate)] is 6.52
